test: Inhibitory activity against protein phosphatase (PP2A) at 1 uM using fluorescein diphosphate
Measured endpoint: inhibition (%)
Give the value in % but do not write % after it.

Some solved cases for reference:
{"Structure notation": "C=C(CC[C@H]1O[C@@H](C(C)(C)O)CC[C@]1(C)O)[C@H]1CC[C@H]2O[C@@H]([C@]3(C)CC[C@@H](Br)C(C)(C)O3)CC[C@]2(C)O1", "inhibition / %": 0}
{"Structure notation": "C=C(CC[C@H](O)[C@@]1(C)CC[C@H](C(C)(C)O)O1)[C@H]1CC[C@H]2O[C@@H]([C@]3(C)CC[C@@H](C(C)(C)OC)O3)CC[C@]2(C)O1", "inhibition / %": 0}
{"Structure notation": "CC(C)(O)[C@H]1CC[C@](C)([C@@H](O)CC[C@](O)(CO)C2=CC[C@H]3O[C@@H]([C@]4(C)CC[C@@H](Br)C(C)(C)O4)CC[C@]3(C)O2)O1", "inhibition / %": 52.8}
{"Structure notation": "C=C(CC[C@H](O)[C@@]1(C)CC[C@H](C(C)(C)O)O1)[C@H]1CC[C@H]2O[C@@H]([C@]3(C)CCC(=O)O3)CC[C@]2(C)O1", "inhibition / %": 33.7}
{"Structure notation": "C=C([C@H](O)C[C@H](O)[C@@]1(C)CC[C@H](C(C)(C)O)O1)[C@H]1CC[C@H]2O[C@@H]([C@]3(C)CC[C@@H](Br)C(C)(C)O3)CC[C@]2(C)O1", "inhibition / %": 42.2}

Input: Can you look up the measured inhibition of CC(C)(O)[C@H]1CC[C@](C)([C@@H](O)CC[C@@](O)(CO)C2=CC[C@H]3O[C@@H]([C@]4(C)CC[C@@H](Br)C(C)(C)O4)CC[C@]3(C)O2)O1 for me?
Output: 15.2

Input: Same lookup for C/C(=C\C[C@H](O)[C@@]1(C)CC[C@H](C(C)(C)O)O1)[C@H]1CC[C@H]2O[C@@H]([C@]3(C)CC[C@@H](Br)C(C)(C)O3)CC[C@@]2(C)O1 , please.
Output: 17.9

Input: Same lookup for C=C(CC[C@H](O)[C@@]1(C)CC[C@H](C(C)(C)O)O1)[C@H]1CC[C@H]2O[C@@H]([C@]3(C)CC[C@](OC)(C(C)C)O3)CC[C@]2(C)O1 , please.
Output: 0

Input: Same lookup for C=C([C@@H](O)C[C@H](O)[C@@]1(C)CC[C@H](C(C)(C)O)O1)[C@H]1CC[C@H]2O[C@@H]([C@]3(C)CC[C@@H](Br)C(C)(C)O3)CC[C@]2(C)O1 , please.
Output: 41.1

Input: Same lookup for C=C(CC[C@H](O)[C@@]1(C)CC[C@H](C(C)(C)O)O1)[C@H]1CC[C@H]2O[C@@H]([C@]3(C)CC[C@@H](C(C)(C)O)O3)CC[C@]2(C)O1 , please.
Output: 0

Input: Same lookup for C=C(CC[C@H](O)[C@@]1(C)CC[C@H](C(C)(C)O)O1)[C@H]1CC[C@H]2O[C@@H]([C@]3(C)CC[C@@H](Br)C(C)(C)O3)CC[C@]2(C)O1 , please.
Output: 8.2

* * *

organism: Homo sapiens; experiment: Inhibition of protein phosphatase (PP2A) at 10 uM using fluorescein diphosphate
Measured endpoint: inhibition (%)
Give the value in % but do not write % after it.

{"Molecule": "C=C(CC[C@H](O)[C@@]1(C)CC[C@H](C(C)(C)O)O1)[C@H]1CC[C@H]2O[C@@H]([C@]3(C)CC[C@@H](Br)C(C)(C)O3)CC[C@]2(C)O1", "Endpoint value": 12.2}

Input: Can you look up the measured inhibition of C=C(CC[C@H]1O[C@@H](C(C)(C)O)CC[C@]1(C)O)[C@H]1CC[C@H]2O[C@@H]([C@]3(C)CC[C@@H](Br)C(C)(C)O3)CC[C@]2(C)O1 for me?
Output: 6.2

Input: Same lookup for C=C(CC[C@H](O)[C@@]1(C)CC[C@H](C(C)(C)O)O1)[C@H]1CC[C@H]2O[C@@H]([C@]3(C)CC[C@@H](C(C)(C)O)O3)CC[C@]2(C)O1 , please.
Output: 0

Input: Same lookup for C/C(=C\C[C@H](O)[C@@]1(C)CC[C@H](C(C)(C)O)O1)[C@H]1CC[C@H]2O[C@@H]([C@]3(C)CC[C@@H](Br)C(C)(C)O3)CC[C@@]2(C)O1 , please.
Output: 41.9

Input: Same lookup for CC(CCC[C@H]1O[C@@H]([C@]2(C)CC[C@@H](Br)C(C)(C)O2)CC[C@]1(C)O)CC[C@H](O)[C@@]1(C)CC[C@H](C(C)(C)O)O1 (stereo partly specified) , please.
Output: 45.9

Input: Same lookup for C=C(CC[C@H](O)[C@@]1(C)CC[C@H](C(C)(C)O)O1)[C@H]1CC[C@H]2O[C@@H]([C@]3(C)CC[C@](OC)(C(C)C)O3)CC[C@]2(C)O1 , please.
Output: 2.7

Ref: ChEMBL document CHEMBL1136676
